# Test system: HL-60
# test-summary: NCI tumour cell line growth inhibition, 48 h
Calls of active or inactive are those of the source. Rule as the data show it: active = GI50 up to about 1.1 µM and inactive = higher.
assay-readout: GI50

>  <compound>
COC12c3ccccc3-c3ccccc3C1[C@H]1C(=O)OC(=O)[C@H]12 (some centres undefined)

>  <system-under-test>
HL-60

>  <GI50>
> 10 µM (inactive)

$$$$
>  <compound>
CCc1cccc(C)c1NC(=O)C(=O)CC(=O)c1ccc(Cl)s1

>  <system-under-test>
HL-60

>  <GI50>
> 100 µM (inactive)

$$$$
>  <compound>
O=C1OC(=O)c2c1nc1ccccc1c2-c1ccccc1

>  <system-under-test>
HL-60

>  <GI50>
> 100 µM (inactive)

$$$$

Would you be so kind as to report GI50 for each listed record?
1. CC(C)c1cccc(=O)c(O)c1
2. Cc1cn(CCOCCOC(=O)NC(CCCNC(N)=O)C(=O)O)c(=O)[nH]c1=O (centres undefined)

Solution:
["2.02 µM (inactive)", "> 100 µM (inactive)"]

Would you be so kind as to report GI50 for each listed record?
1. N#Cc1cnn2cc[nH]c12
2. O=NC1C(Cl)C2CC1C1C(Br)C(Br)CC21 (centres undefined)
3. Cc1sccc1C(=S)Nc1ccc(Cl)c(/C=N/OC(C)(C)C)c1
4. COc1cccc(C[C@H]2COC(=O)[C@]2(O)Cc2cccc(OC)c2)c1
5. COC(=O)c1cccc2c3ccccc3c3ccccc3c12

Solution:
1. > 100 µM (inactive)
2. > 100 µM (inactive)
3. 16.9 µM (inactive)
4. 72.6 µM (inactive)
5. 23.3 µM (inactive)

Would you be so kind as to report GI50 for each listed record?
1. O[C@H]1[C@@H]2OC[C@@H](O)[C@H](OCc3ccccc3)[C@@](COCc3ccccc3)(O2)[C@@H]1OCc1ccccc1
2. O=C1Nc2ccccc2/C1=C\c1c(Cl)n(-c2ccccc2)c2ccccc12
3. CC(C)(C)CC(C)(C)c1cc2c(O)c(c1)Cc1cc(C(C)(C)CC(C)(C)C)cc(c1O)Cc1cc(C(C)(C)CC(C)(C)C)cc(c1O)Cc1cc(C(C)(C)CC(C)(C)C)cc(c1O)C2

Solution:
["32.6 µM (inactive)", "2.77 µM (inactive)", "> 100 µM (inactive)"]

Would you be so kind as to report GI50 for each listed record?
1. O=c1c2cc([N+](=O)[O-])ccc2[nH]n1Cc1ccccn1
2. Cn1c2ccc(F)cc2c2ccc3c(c21)C(=O)C=CC3=O
3. CC1=NN(c2ccc(S(=O)(=O)O)cc2)C(=O)/C1=C/c1ccc(Cl)cc1.c1ccncc1
4. CCOP(=O)(OCC)C(C)(CC)NC (centres undefined)
5. Cc1cc(Br)ccc1/N=N/c1c(C)nn(-c2ccccc2)c1-c1ccccc1
6. O=C1NCN(c2ccccc2)C12CCN(CCCN1CCN(CCOC(c3ccccc3)c3ccccc3)CC1)CC2
7. COc1ccc(S(=O)(=O)Nc2ccccc2C(=O)O)cc1
8. NC(=O)NCc1c(C(N)=O)ncn1Cc1ccccc1

Solution:
1. > 100 µM (inactive)
2. 0.598 µM (active)
3. > 100 µM (inactive)
4. > 100 µM (inactive)
5. 5.05 µM (inactive)
6. 1.18 µM (inactive)
7. > 100 µM (inactive)
8. > 100 µM (inactive)
